Consider the following compounds; for each one, report its pIC50.
# ASSAY OVERVIEW: Inhibition of Hedgehog signaling pathway in mouse TM3 cells bearing pTA-8xGli-Luc reporter construct assessed as transcriptional modulation of Gli after 48 hrs by luciferase assay
# CONDITION DETAILS: TM3, 48 h
Note on pIC50: it is the negative log10 of concentration, concentration in mol/L.

Lab note: CC(=O)Nc1ccc(CN[C@H]2Cc3ccc(NC(=O)c4cccc(C)c4-c4ccc(C(F)(F)F)cc4)cc3C2)cc1 gave pIC50 of 6.35

Lab note: Cc1cccc(C(=O)Nc2ccc3c(c2)CC(NCc2ccccn2)C3)c1-c1ccc(C(F)(F)F)cc1 (racemic) gave pIC50 of 7.00

Lab note: Cc1cccc(C(=O)Nc2ccc3c(c2)C[C@@H](NCc2nccs2)C3)c1-c1ccc(C(F)(F)F)cc1 gave pIC50 of 7.60

----------
Consider the following compounds; for each one, report its IC50.
# TARGET ENTITY: Microsomal triglyceride transfer protein large subunit (Homo sapiens)
# Sequence (P55157 whole entry): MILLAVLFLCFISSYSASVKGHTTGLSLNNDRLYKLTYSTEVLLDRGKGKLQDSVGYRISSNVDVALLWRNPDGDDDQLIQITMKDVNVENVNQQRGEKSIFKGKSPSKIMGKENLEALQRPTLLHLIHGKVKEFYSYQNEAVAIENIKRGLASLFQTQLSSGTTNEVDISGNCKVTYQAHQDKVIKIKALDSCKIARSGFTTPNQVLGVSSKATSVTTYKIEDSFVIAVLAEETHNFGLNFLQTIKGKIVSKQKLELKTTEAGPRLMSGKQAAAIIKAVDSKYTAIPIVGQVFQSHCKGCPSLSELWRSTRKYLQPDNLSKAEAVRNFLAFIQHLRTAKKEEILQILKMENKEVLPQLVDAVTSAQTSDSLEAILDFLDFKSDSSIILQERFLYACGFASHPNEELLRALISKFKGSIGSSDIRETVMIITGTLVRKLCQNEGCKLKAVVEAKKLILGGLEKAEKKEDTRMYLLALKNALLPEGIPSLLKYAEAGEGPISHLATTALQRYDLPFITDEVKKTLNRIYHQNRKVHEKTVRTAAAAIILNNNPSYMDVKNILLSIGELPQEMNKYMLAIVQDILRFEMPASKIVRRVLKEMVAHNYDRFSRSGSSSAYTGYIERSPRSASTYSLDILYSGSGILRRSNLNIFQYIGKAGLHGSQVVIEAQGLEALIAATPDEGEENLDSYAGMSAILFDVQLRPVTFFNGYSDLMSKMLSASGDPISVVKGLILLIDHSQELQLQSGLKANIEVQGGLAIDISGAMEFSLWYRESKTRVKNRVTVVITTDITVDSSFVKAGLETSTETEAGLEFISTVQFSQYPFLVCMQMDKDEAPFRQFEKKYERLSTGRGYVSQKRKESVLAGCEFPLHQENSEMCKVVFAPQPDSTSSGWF
# ASSAY OVERVIEW: Inhibition of MTP in human HepG2 cells assessed as apolipoprotein B production by ELISA
# Format: cell-based
Numbers only here, please. The scale is nM.

Reading of IC50 for COC(=O)N[C@H]1Cc2ccc(NC(=O)c3cccc(C)c3-c3ccc(C(F)(F)F)cc3)cc2C1 with Microsomal triglyceride transfer protein large subunit (Homo sapiens): 4.3

Reading of IC50 for COC(=O)N[C@@H]1Cc2ccc(NC(=O)c3cccc(C)c3-c3ccc(C(F)(F)F)cc3)cc2C1 with Microsomal triglyceride transfer protein large subunit (Homo sapiens): 0.9

Reading of IC50 for Cc1cccc(C(=O)Nc2ccc3c(c2)C[C@@H](NCc2ccccn2)C3)c1-c1ccc(C(F)(F)F)cc1 with Microsomal triglyceride transfer protein large subunit (Homo sapiens): 2350

Reading of IC50 for Cc1cccc(C(=O)Nc2ccc3c(c2)C[C@H](NCc2ccccn2)C3)c1-c1ccc(C(F)(F)F)cc1 with Microsomal triglyceride transfer protein large subunit (Homo sapiens): 3.5

----------
Consider the following molecules; for each one, report its IC50.
# TARGET ENTITY: Protein smoothened (Homo sapiens, UniProt Q99835)
# Sequence (Q99835 whole entry): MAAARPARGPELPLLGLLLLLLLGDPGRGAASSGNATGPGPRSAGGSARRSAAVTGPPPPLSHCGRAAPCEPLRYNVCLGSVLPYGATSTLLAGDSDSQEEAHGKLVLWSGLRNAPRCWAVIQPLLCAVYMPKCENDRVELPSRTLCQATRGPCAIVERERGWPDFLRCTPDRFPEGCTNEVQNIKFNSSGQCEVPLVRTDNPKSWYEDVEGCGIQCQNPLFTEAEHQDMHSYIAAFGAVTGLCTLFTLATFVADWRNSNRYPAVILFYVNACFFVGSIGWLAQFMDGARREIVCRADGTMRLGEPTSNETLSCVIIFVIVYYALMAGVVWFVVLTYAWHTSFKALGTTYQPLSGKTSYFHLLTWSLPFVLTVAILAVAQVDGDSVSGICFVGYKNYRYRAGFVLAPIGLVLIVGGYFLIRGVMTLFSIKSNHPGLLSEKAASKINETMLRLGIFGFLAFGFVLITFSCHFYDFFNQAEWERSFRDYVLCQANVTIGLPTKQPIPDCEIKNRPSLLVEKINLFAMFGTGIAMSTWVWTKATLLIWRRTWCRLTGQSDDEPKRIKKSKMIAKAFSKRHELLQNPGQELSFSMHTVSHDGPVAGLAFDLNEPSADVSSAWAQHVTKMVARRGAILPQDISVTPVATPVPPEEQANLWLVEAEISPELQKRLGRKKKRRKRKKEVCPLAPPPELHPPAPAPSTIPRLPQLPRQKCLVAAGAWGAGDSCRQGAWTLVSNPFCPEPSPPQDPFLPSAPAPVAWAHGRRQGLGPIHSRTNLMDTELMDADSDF
# ASSAY OVERVIEW: Antagonist activity at human Smo receptor expressed in CHO cells by [3H]Hh-Ag binding assay
Numbers only here, please. The scale is nM.

Lab note: Cc1cccc(C(=O)Nc2ccc3c(c2)C[C@@H](NCc2scnc2C)C3)c1-c1ccc(C(F)(F)F)cc1 gave IC50 of 170

Lab note: Cc1csc(CN[C@H]2Cc3ccc(NC(=O)c4cccc(C)c4-c4ccc(C(F)(F)F)cc4)cc3C2)n1 gave IC50 of 7

Lab note: O=C(Nc1ccc2c(c1)CC(NCc1ccccn1)C2)c1ccccc1-c1ccc(C(F)(F)F)cc1 (racemic) gave IC50 of 790

Lab note: COC(=O)N[C@H]1Cc2ccc(NC(=O)c3cccc(C)c3-c3ccc(C(F)(F)F)cc3)cc2C1 gave IC50 of 7520

Lab note: Cc1cccc(C(=O)Nc2ccc3c(c2)C[C@H](NCc2nccs2)C3)c1-c1ccc(C(F)(F)F)cc1 gave IC50 of 770
